experiment: viability loss of mouse 3T3 cells – cell-based, cherry-pick, single point, set 2, cytotoxicity control, confirmation (AID 651744); conditions: NIH/3T3 viability, CellTiter-Glo ATP luminescence, 90 h; at 24.9 µM; stronger effect = higher value;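 note: 0% = median of neutral control wells and 100% = median of positive control wells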
The whole screen tested about 5,600 compounds, of which about 3,100 (55%) were called active. Inconclusive results (about 3%) are left out. So high a share suggests a set chosen from earlier hits. Only a sample is shown.
This listing pairs compounds with measured inhibition.

{"Cpd Smiles": "COc1ccc(S(=O)(=O)N(C)C[C@H]2OCCCC[C@H](C)Oc3ccc(NS(=O)(=O)c4ccc(F)cc4)cc3C(=O)N([C@@H](C)CO)C[C@@H]2C)cc1", "inhibition": "-33.1% (inactive)"}
{"Cpd Smiles": "O=C(c1cccnc1)N1CCCCN2[C@@H](CO)[C@H](c3ccc(C#Cc4ccccc4)cc3)[C@@H]2C1", "inhibition": "66.5% (active)"}
{"Cpd Smiles": "O=C(C[C@@H]1C[C@H]2c3cc(NC(=O)C4CCC4)ccc3O[C@H]2[C@@H](CO)O1)NCc1ccc2c(c1)OCO2", "inhibition": "-13.1% (inactive)"}
{"Cpd Smiles": "CN(C)C(=O)c1ccc(-c2ccc3c(c2)[C@H]2[C@H](CCN2C(=O)c2ccc4c(c2)OCO4)[C@H](CO)N3)cc1", "inhibition": "-8.51% (inactive)"}
{"Cpd Smiles": "O=C(Nc1ccccc1)N1CCCCN2[C@H](CO)[C@@H](c3ccc(C#Cc4ccccn4)cc3)[C@H]2C1", "inhibition": "9.74% (inactive)"}
{"Cpd Smiles": "C[C@@H]1CCCCO[C@H](CN(C)C(=O)NC2CCCCC2)[C@H](C)CN([C@H](C)CO)C(=O)c2cc(NS(=O)(=O)c3ccc(Cl)cc3)ccc2O1", "inhibition": "-1.41% (inactive)"}
{"Cpd Smiles": "COCC(=O)N1CC[C@@H]2[C@@H](CO)Nc3ccc(-c4cccc(C#N)c4)cc3[C@@H]21", "inhibition": "5.66% (inactive)"}
{"Cpd Smiles": "C[C@H](CO)N1C[C@H](C)[C@H](CN(C)S(=O)(=O)c2ccc(F)cc2)OCCCC[C@H](C)Oc2ccc(NS(=O)(=O)c3ccc(Cl)cc3)cc2C1=O", "inhibition": "18.4% (inactive)"}
{"Cpd Smiles": "C[C@@H]1CN([C@H](C)CO)S(=O)(=O)c2ccc(C#CC3CCCC3)cc2O[C@@H]1CN(C)Cc1cccnc1", "inhibition": "104% (active)"}
{"Cpd Smiles": "COc1ccc(C#Cc2ccc([C@@H]3[C@@H](CO)N4CCCCN(C(=O)c5ccncc5)C[C@@H]34)cc2)cc1", "inhibition": "97.5% (active)"}

---

assay: viability loss of mouse 3T3 cells – cell-based, cherry-pick, single point, set 2, cytotoxicity control, confirmation (AID 651744); conditions: NIH/3T3 viability, CellTiter-Glo ATP luminescence, 90 h; at 24.9 µM; stronger effect = higher value;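 note: 0% = median of neutral control wells and 100% = median of positive control wells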
The whole screen tested about 5,600 compounds, of which about 3,100 (55%) were called active. Roughly 3% stayed inconclusive and do not appear here. So high a share suggests a set chosen from earlier hits. These entries were drawn from the full list.
Field 'label' (enum: criterion met / criterion not met). Set to criterion met when inhibition is strictly under 20%; else criterion not met.

{"Cpd Smiles": "C[C@H](CO)N1C[C@H](C)[C@@H](CN(C)C(=O)Nc2ccnc(N3CCOCC3)c2)OCc2ccccc2-c2ccccc2C1=O", "Assigned Category": "criterion met"}
{"Cpd Smiles": "Cc1noc(C)c1S(=O)(=O)Nc1ccc2c(c1)C(=O)N([C@@H](C)CO)C[C@H](C)[C@@H](CN(C)C(=O)Nc1cccc3ccccc13)OCCCC[C@H](C)O2", "Assigned Category": "criterion met"}
{"Cpd Smiles": "C[C@H](CO)N1C[C@H](C)[C@H](CN(C)Cc2ccc(C(F)(F)F)cc2)Oc2ccc(NS(=O)(=O)c3ccc(Cl)cc3)cc2C1=O", "Assigned Category": "criterion not met"}
{"Cpd Smiles": "C[C@H](CO)N1C[C@H](C)[C@H](CN(C)C(=O)Nc2cccc3ccccc23)Oc2ncc(C#Cc3ccccc3)cc2C1=O", "Assigned Category": "criterion not met"}
{"Cpd Smiles": "CCC(=O)N1CC[C@@H]2[C@@H](CO)N(C)c3ccc(-c4cccc(OC)c4)cc3[C@@H]21", "Assigned Category": "criterion met"}
{"Cpd Smiles": "C[C@H](CO)N1C[C@H](C)[C@H](CN(C)Cc2cccnc2)Oc2cc(C#CC3CCCC3)ccc2S1(=O)=O", "Assigned Category": "criterion not met"}
{"Cpd Smiles": "C/C=C/c1ccc([C@H]2[C@@H](CNC(C)C)N(c3nc(CC)cs3)[C@H]2CO)cc1", "Assigned Category": "criterion not met"}
